These measurements were taken from patent US20250243281A1.

- System Name: T1, hCLEC2D (human, UniProt Q9UHP7 1-191)
- T1 construct: Overexpressed on HEK293 or K562 cells; the same id is used for endogenous CLEC2D on NALM6 and Raji cells; also called LLT1
- T1 sequence: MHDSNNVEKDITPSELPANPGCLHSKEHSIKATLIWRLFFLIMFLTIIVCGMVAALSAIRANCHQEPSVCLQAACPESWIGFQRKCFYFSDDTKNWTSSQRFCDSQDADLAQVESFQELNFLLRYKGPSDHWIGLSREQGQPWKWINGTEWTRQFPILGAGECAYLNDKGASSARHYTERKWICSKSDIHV
- Method: flow cytometry, HEK293 transfectants, 100 nM antibody;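 further: antibody applied at a saturating level and incubated with cells for 30 min at room temperature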
Threshold-based label: % of CD161 binding under 1% gives true, % of CD161 binding not under 1% gives false.

| Binder | Discrete Label |
| --- | --- |
| Ab7 (antibody, human IgG1, V domains shown, IgG purified from yeast culture) VH: EVQLLESGGGLVQPGGSLRLSCAASGFTFGQYAMSWVRQAPGKGLEWVSAISAAGGTTYYADSVKGRFTISRDNSKNTLYLQMNSLRAEDTAVYYCAKPLDSSQWADFDLWGRGTLVTVSS VL: DIQLTQSPSSVSASVGDRVTITCRASQGISSWLAWYQQKPGKAPKLLIYAASFLQSGVPSRFSGSGSGTDFTLTISSLQPEDFATYYCQQASVLPITFGGGTKVEIK | false |
| Ab9 (antibody, human IgG1, V domains shown) VH: EVQLLESGGGLVQPGGSLRLSCAASGFTFSPYAMSWVRQAPGKGLEWVSAISASGGTTYYADSVKGRFTISRDNSKNTLYLQMNSLRAEDTAVYYCAKPLDSSFWADFDLWGRGTLVTVSS VL: DIQLTQSPSSVSASVGDRVTITCRASQGISSWLAWYQQKPGKAPKLLIYAASSLQSGVPSRFSGSGSGTDFTLTISSLQPEDFATYYCQQHSVLPITFGGGTKVEIK | true |
| Ab13 (antibody, human IgG1, V domains shown, IgG purified from yeast culture) VH: QVQLVESGGGLVKPGGSLRLSCAASGFTFANYYMSWIRQAPGKGLEWVSYISPSGATIAYADSVKGRFTISRDNAKNSLYLQMNSLRAEDTAVYYCARSLMATGTHLYFDLWGRGTLVTVSS VL: DIQLTQSPSSVSASVGDRVTITCRASSGISSWLAWYQQKPGKAPKLLIYAASELQSGVPSRFSGSGSGTDFTLTISSLQPEDFATYYCQQATSFPPYTFGGGTKVEIK | true |
